# MEASURED_TARGET: Nuclear receptor subfamily 1 group I member 2 (Homo sapiens, UniProt O75469)
# Sequence (O75469 whole entry): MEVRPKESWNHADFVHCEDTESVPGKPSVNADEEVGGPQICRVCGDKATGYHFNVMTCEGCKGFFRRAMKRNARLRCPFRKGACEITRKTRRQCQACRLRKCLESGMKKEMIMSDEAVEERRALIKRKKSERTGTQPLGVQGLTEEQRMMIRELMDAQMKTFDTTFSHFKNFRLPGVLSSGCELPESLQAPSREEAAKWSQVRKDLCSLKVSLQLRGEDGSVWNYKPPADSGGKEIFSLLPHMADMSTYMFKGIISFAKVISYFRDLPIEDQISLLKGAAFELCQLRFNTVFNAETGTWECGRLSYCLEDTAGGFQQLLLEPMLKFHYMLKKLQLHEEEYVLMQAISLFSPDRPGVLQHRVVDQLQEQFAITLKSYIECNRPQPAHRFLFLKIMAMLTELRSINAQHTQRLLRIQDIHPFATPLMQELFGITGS
# ASSAY_OVERVIEW: Inhibition of PXR (unknown origin)
pEC50: −log10 of the molar value.
TEST_READOUT: pEC50

`C[C@@](O)(CS(C)(=O)=O)C(=O)N[C@@H]1CC[C@@]2(S(=O)(=O)c3ccc(F)cc3)c3ccc(C(F)(C(F)(F)F)C(F)(F)F)nc3CC[C@@H]12` has a reported pEC50 of < 5.00
